# Target Or Test System: Rat TRPA1 expressing CHO cells (Rattus norvegicus, UniProt Q6RI86)
# Construct: expressed in transfected cells; host or cells: CHO cells (Zeocin selection)
# Sequence (Q6RI86 whole entry): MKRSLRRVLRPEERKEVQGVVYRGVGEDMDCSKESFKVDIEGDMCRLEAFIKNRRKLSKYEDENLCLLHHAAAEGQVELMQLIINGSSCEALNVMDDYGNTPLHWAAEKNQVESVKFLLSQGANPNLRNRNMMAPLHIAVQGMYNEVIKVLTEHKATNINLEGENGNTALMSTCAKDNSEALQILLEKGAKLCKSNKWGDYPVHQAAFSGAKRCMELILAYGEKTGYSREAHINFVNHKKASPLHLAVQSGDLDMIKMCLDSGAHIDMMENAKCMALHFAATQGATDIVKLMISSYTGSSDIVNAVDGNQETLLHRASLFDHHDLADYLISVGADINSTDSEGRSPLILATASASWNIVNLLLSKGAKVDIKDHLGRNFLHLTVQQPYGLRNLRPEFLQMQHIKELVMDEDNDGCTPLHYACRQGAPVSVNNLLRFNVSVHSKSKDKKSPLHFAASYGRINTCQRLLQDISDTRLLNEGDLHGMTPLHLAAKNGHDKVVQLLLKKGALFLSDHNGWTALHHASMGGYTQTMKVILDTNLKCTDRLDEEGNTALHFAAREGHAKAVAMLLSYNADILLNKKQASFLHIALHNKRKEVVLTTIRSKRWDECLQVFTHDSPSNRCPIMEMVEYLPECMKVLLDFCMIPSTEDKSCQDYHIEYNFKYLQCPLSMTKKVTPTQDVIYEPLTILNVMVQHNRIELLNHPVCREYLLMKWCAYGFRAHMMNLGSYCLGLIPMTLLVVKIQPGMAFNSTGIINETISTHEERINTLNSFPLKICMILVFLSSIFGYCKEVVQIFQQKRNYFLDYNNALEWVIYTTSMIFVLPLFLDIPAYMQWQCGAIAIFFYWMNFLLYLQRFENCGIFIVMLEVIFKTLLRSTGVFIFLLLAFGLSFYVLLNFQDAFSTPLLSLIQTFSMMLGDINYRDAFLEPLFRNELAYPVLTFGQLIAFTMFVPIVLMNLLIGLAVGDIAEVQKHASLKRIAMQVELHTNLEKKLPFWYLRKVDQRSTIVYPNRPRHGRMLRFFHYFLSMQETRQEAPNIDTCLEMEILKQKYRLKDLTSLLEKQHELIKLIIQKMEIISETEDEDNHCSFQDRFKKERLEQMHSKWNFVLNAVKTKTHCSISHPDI
# Experiment Description: 45Calcium uptake assay, inhibition of AITC induced calcium uptake (rat)
# Assay type: cell-based
# Test Context: rat TRPA1 CHO cells, AITC 10 μM, compound 1.0 μM; read-out: Percentage inhibition at 1.0 μM
Property: inhibition at 1 µM (%)

1) CC(C)Cc1ccc(-c2csc(NC(=O)Cc3scc4c3c(=O)n(C)c(=O)n4C)n2)cc1 84.1
2) Cc1sc2c(c1CC(=O)Nc1nc(-c3cccc(F)c3F)cs1)c(=O)n(C)c(=O)n2C 93.5
3) CC(C)c1sc2c(c1CC(=O)Nc1nc(-c3ccc(C(F)(F)F)c(F)c3)cs1)c(=O)n(C)c(=O)n2C 94.9
4) Cn1c(=O)c2c(CC(=O)Nc3nc(-c4ccc(Cl)c(Cl)c4)cs3)csc2n(C)c1=O 97.8
5) Cc1sc2c(c1CC(=O)Nc1nc(-c3ccc(F)c(OC(F)(F)F)c3)cs1)c(=O)n(C)c(=O)n2C 99.2
